Molecular target: SGK1 (Homo sapiens)
Sequence (O00141 whole entry): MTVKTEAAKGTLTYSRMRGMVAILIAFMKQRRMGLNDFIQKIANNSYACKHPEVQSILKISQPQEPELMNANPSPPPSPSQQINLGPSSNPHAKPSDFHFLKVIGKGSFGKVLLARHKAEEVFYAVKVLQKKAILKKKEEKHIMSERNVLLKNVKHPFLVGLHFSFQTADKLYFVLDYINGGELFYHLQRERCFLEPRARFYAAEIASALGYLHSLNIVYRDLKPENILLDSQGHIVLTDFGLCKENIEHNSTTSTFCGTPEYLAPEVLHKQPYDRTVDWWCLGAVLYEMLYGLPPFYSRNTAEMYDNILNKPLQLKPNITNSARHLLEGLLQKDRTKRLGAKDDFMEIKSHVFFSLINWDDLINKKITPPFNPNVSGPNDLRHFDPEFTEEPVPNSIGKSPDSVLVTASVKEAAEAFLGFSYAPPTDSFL
Counter-ions that a name gives are not always drawn.
Provide the recorded IC50 for the entries that follow.
One number for each entry, in nM.

Answered examples (5):
# molecule, IC50 (nM)
measured = [
    ("CC[C@H](CO)N[C@H]1CC[C@@H](Oc2nc(C)sc2C(=O)N[C@@H]2CCCN(c3cc(C4=C(C)C(=O)OC4)n4ncnc(N)c34)C2)CC1 [Example 1010]", 2.1),
    ("CN1CCN(c2nccc(C(=O)N[C@@H]3CCCN(c4cc(-c5ccc(-n6cnnn6)c(CO)c5)n5ncnc(N)c45)C3)n2)CC1 [Example 852, TFA salt]", 10),
    ("CC(=O)N1CC=C(c2cc(N3CCC[C@@H](NC(=O)c4sc(Cl)cc4OCC(C)(C)O)C3)c3c(N)ncnn23)C1 [Example 921, TFA salt]", 7),
    ("[2H]C([2H])([2H])N(C1CCC(Oc2nc(C)sc2C(=O)N[C@@H]2CCCN(c3cc(-c4ccnc(OC)n4)n4ncnc(N)c34)C2)CC1)C([2H])([2H])[2H] (some centres unmarked) [Example 1032]", 1.2),
    ("CC(C)N1CC2(CN(c3cccc(C(=O)N[C@@H]4CCCN(c5cc(-c6ccc(C#N)c(F)c6)n6ncnc(N)c56)C4)n3)C2)C1 [Example 818]", 3),
]

Your task in this section: give IC50 for each listed record.
1. Cc1nccc(-c2cc(N3CCC[C@@H](NC(=O)c4sc(C)nc4O[C@H]4CC[C@@H](NC(C)C)CC4)C3)c3c(N)ncnn23)n1 [Example 1036]
2. Cc1nc(O[C@H]2CC[C@]3(CCCN3)CC2)c(C(=O)N[C@@H]2CCCN(c3cc(-c4ccc(C(N)=O)c(F)c4)n4ncnc(N)c34)C2)s1 [Example 930, TFA salt]
3. Nc1ncnn2c(-c3ccc(=O)n(CC(F)F)n3)cc(N3CCC[C@@H](NC(=O)c4sc(Cl)cc4O[C@@H]4C[C@H]5CCC[C@@H](C4)N5CCO)C3)c12 [Example 972]
4. CC(=O)c1ccc(-c2cc(N3CCC[C@@H](NC(=O)c4sc(C)cc4O[C@@H]4C[C@H]5CC[C@@H](C4)N5C)C3)c3c(N)ncnn23)cn1 [Example 846]
5. Cc1cc(O[C@@H]2C[C@H]3CC[C@@H](C2)N3C)c(C(=O)N[C@@H]2CCCN(c3cc(-c4cc(F)c(-n5cnnn5)c(F)c4)n4ncnc(N)c34)C2)s1 [Example 844]

Reply |
[0.1, 1, 2, 16, 3]

Your task in this section: give IC50 for each listed record.
1. COc1cc(-c2cc(N3CCC[C@@H](NC(=O)c4ccnc(N5CCN(C)CC5)n4)C3)c3c(N)ncnn23)ccc1-n1cnnn1 [Example 855]
2. Cc1nnnn1-c1ccc(-c2cc(N3CCC[C@@H](NC(=O)c4cccc(N5CC6(C5)CN(C(C)C)C6)n4)C3)c3c(N)ncnn23)cc1 [Example 829]
3. CC[C@H](CO)NC1CCC(Oc2nc(C)sc2C(=O)N[C@@H]2CCCN(c3cc(-c4csc(C(=O)NC)n4)n4ncnc(N)c34)C2)CC1 (some centres unmarked) [Example 1053]
4. Cc1cc(-c2cc(N3CCC[C@@H](NC(=O)c4cccc(N5CC6(C5)CN(C(C)C)C6)n4)C3)c3c(N)ncnn23)ccc1-n1cnnn1 [Example 822]
5. CCN1CCC(Oc2nc(C)sc2C(=O)N[C@@H]2CCCN(c3cc(C4=CCN(C(C)=O)C4)n4ncnc(N)c34)C2)CC1(C)C (single isomer, unassigned) [Example 946]
6. CC(=O)N1CC=C(c2cc(N3CCC[C@@H](NC(=O)c4sc(Cl)cc4OC4CC5COCC(C4)N5CCO)C3)c3c(N)ncnn23)C1 (some centres unmarked) [Example 986]
7. CC(C)N1CC2(CN(c3cccc(C(=O)N[C@@H]4CCCN(c5cc(-c6cnc(-n7cnnn7)c(F)c6)n6ncnc(N)c56)C4)n3)C2)C1 [Example 830]

Reply |
14
2
0.8
4
12
37
4

Your task in this section: give IC50 for each listed record.
1. COC[C@@H](C)NC1CCC(Oc2nc(C)sc2C(=O)N[C@@H]2CCCN(c3cc(C4=C(C)C(=O)OC4)n4ncnc(N)c34)C2)CC1 (some centres unmarked) [Example 1008]
2. CC(=O)N1CC=C(c2cc(N3CCC[C@@H](NC(=O)c4sc(Cl)cc4O[C@@H]4C[C@H]5CC[C@@H](C4)O5)C3)c3c(N)ncnn23)C1 [Example 988]
3. CN1CCN(c2cccc(C(=O)N[C@@H]3CCCN(c4cc(-c5cnn(C(F)F)c5)n5ncnc(N)c45)C3)n2)CC1 [Example 807, TFA salt]
4. CC(=O)c1ccc(-c2cc(N3CCC[C@@H](NC(=O)c4cccc(N5CC6(C5)CN(C(C)C)C6)n4)C3)c3c(N)ncnn23)cn1 [Example 831]
5. CN1CCN(c2nccc(C(=O)N[C@@H]3CCCN(c4cc(-c5cc(F)c(-n6cnnn6)c(F)c5)n5ncnc(N)c45)C3)n2)CC1 [Example 854]

Reply |
1
3
41
22
1

Ask | Report IC50 for CN1CCN(c2cccc(C(=O)N[C@@H]3CCCN(c4cc(-c5ccc(-n6cccn6)cc5)n5ncnc(N)c45)C3)n2)CC1 [Example 808] please.
Reply | 34
